Target: KRAS G13D (Homo sapiens (Human), UniProt P01116+P62937, G13D)
Sequence (P01116 other isoform, or with tags, fused parts or gaps G13D, one chain of several): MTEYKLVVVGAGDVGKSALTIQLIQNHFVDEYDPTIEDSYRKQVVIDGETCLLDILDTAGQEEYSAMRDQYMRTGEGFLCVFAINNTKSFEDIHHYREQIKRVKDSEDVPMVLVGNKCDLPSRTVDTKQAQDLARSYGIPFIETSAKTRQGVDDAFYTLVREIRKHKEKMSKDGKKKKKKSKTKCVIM
Test: Ras-Raf disruption/FRET/MOA assay (BRAF RBD, Cyclophilin A)
Format: biochemical
Details: read-out: KRAS G13D FRET data IC50
IC50 reference

Below: 3 molecules and their reported IC50.
Quick check: IC50 of CCn1c(-c2cccnc2[C@H](C)OC)c2c3cc(ccc31)-c1csc(n1)C[C@H](NC(=O)[C@H](C(C)C)N(C)C(=O)N1CCC[C@H](N(C)C)CC1)C(=O)N1CCC[C@H](N1)C(=O)OCC(C)(C)C2 ?
100 to 1000 nM

Quick check: IC50 of CCn1c(-c2cnccc2COC)c2c3cc(ccc31)-c1cc(O)cc(c1)C[C@H](NC(=O)[C@H](C(C)C)N(C)C(=O)[C@H]1CCN(C(=O)C(C)(C)N)C1)C(=O)N1CCC[C@H](N1)C(=O)OCC(C)(C)C2 ?
100 to 1000 nM

Quick check: IC50 of CCn1c(-c2cccnc2[C@H](C)OC)c2c3cc(ccc31)-c1cc(O)cc(c1)C[C@H](NC(=O)[C@H](C(C)C)N1CNCC1=O)C(=O)N1CCC[C@H](N1)C(=O)OCC(C)(C)C2 ?
100 to 1000 nM

Next:
Quick check: IC50 of CCn1c(-c2cccnc2[C@H](C)OC)c2c3cc(ccc31)-c1cc(cc(C(F)F)c1)C[C@H](NC(=O)[C@H](C(C)C)N(C)C(=O)[C@@H]1OCC[C@@H]1c1ccccc1)C(=O)N1CCC[C@H](N1)C(=O)OCC(C)(C)C2 ?
1000 to 10000 nM

###

Molecular target: KRAS G12V (Homo sapiens (Human), UniProt P01116+P62937, G12V)
Sequence (P01116 other isoform, or with tags, fused parts or gaps G12V, one chain of several): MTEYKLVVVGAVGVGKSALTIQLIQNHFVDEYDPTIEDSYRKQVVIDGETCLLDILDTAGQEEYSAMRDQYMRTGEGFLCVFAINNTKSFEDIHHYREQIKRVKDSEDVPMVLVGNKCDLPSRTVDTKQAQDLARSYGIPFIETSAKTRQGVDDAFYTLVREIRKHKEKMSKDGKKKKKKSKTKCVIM
Assay: Ras-Raf disruption/FRET/MOA assay (BRAF RBD, Cyclophilin A)
Format: biochemical
Details: read-out: KRAS G12V FRET IC50
IC50 reference

Below: 2 compounds and their reported IC50.
Quick check: IC50 of CCn1c(-c2cccnc2[C@H](C)OC)c2c3cc(ccc31)-c1csc(n1)C[C@H](NC(=O)[C@H](C(C)C)N(CCc1ccncc1)C1CC1)C(=O)N1CCC[C@H](N1)C(=O)OCC(C)(C)C2 [Compound A556] ?
1 to 10 µM

Quick check: IC50 of CCn1c(-c2cccnc2[C@H](C)OC)c2c3cc(ccc31)-c1csc(n1)C[C@H](NC(=O)[C@H](C(C)C)N(C)C(=O)N1CCC13COC3)C(=O)N1CCC[C@H](N1)C(=O)OCC(C)(C)C2 [Compound A560] ?
0.1 to 1 µM

Proceed to the following item.
Quick check: IC50 of CCn1c(-c2cccnc2[C@H](C)OC)c2c3cc(ccc31)-c1csc(n1)C[C@H](NC(=O)[C@H](C(C)C)N1CCC3(CCN(S(C)(=O)=O)C3)C1=O)C(=O)N1CCC[C@H](N1)C(=O)OCC(C)(C)C2 (stereo partly drawn) [Compound A220] ?
1 to 10 µM

###

Target: KRAS WT (Homo sapiens (Human), UniProt P01116+P62937)
Sequence (P01116 other isoform, or with tags, fused parts or gaps): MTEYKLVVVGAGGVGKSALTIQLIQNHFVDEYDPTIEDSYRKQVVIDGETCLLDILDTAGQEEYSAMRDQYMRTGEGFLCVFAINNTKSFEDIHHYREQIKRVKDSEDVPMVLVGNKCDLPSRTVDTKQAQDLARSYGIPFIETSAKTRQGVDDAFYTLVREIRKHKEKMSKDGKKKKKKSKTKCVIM
Sequence (P62937 whole entry): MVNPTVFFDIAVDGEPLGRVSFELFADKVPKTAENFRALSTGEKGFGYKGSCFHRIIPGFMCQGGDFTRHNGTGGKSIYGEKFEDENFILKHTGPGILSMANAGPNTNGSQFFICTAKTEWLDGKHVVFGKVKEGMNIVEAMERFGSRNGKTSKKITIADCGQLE
Assay: Ras-Raf disruption/FRET/MOA assay (BRAF RBD, Cyclophilin A)
Format: biochemical
Details: read-out: KRAS WT FRET data IC50
pIC50: −log10 of the molar value.
property measured: pIC50

Quick check: pIC50 of CCn1c(-c2cccnc2[C@H](C)OC)c2c3cc(ccc31)-c1cc(O)cc(c1)C[C@H](NC(=O)[C@H](C(C)C)N(C)C(=O)[C@@H]1[C@H]3CC[C@H](C3)[C@@H]1N)C(=O)N1CCC[C@H](N1)C(=O)OCC(C)(C)C2 ?
6.00 to 7.00

Proceed to the following item.
Quick check: pIC50 of CCn1c(-c2cccnc2[C@H](C)OC)c2c3cc(ccc31)-c1cc(O)cc(c1)C[C@H](NC(=O)[C@H](C(C)C)N(C)C(=O)[C@H]1CCN(C(C)=O)C1)C(=O)N1CCC[C@H](N1)C(=O)OCC(C)(C)C2 ?
6.00 to 7.00
